tested on: HCT-116; assay: NCI tumour cell line growth inhibition, 48 h
Active and inactive are the calls of the source. Rule as the data show it: active = GI50 up to about 1.1 µM and inactive = higher. Non-standard residues stand in square brackets, D forms with d. Residues, ends and D or L forms follow the SMILES beside them. ξ: configuration not given here. ξLac(3-iPr) = CC(C)CC(O)C(=O)O; NMeV = CN[CH](C(=O)O)C(C)C; NMeA = CN[CH](C)C(=O)O; βAla = NCCC(=O)O
Return exactly one item of yes = active, no = inactive

Field: example entries. Status: answers known.
Cc1ccc(C(=O)NCCN(C)C)c2nc3ccccc3cc12 ... yes
Cc1cc(C#N)c[n+](C)c1 ... no
C[C@@H](NC1CCCC[C@@H]1O)c1ccccc1 (stereo partly specified) ... no
CCOC(=O)CC(=O)Sc1ccccc1 ... no
O=C(c1ccccc1)C1S(=O)(=O)OCCOS1(=O)=O ... no

What did the test return for c1ccc2c(c1)N=C(c1cccc3ccccc13)CC(c1cccc3ccccc13)S2 (stereo unspecified) ?
no

For CCC(C)C1NC(=O)C2CCCN2C(=O)C(CC(C)C)OC(=O)CCNC(=O)C(C)N(C)C(=O)C(C(C)C)N(C)C1=O (stereo unspecified) (cyclo([ξLac(3-iPr)]PI[NMeV][NMeA][βAla]); configuration not given here) , what call appears in the results of this test?
no

Hello, I am checking results. What call was entered for COc1cc(C(c2cc3c(cc2O)OCO3)N2CCCCC2)cc(OC)c1OC (stereo unspecified) ?
no

State the result this test recorded for N#C/C(=C1\SCC(=O)N1c1ccccc1)c1nc2ccccc2[nH]1 .
no

GET /call?item= C[n+]1c2ccccc2c(NC(CS)C(=O)O)c2ccccc21 (stereo unspecified) returns the recorded outcome of this test.
no
